system: Streptococcus agalactiae; test: Antimicrobial activity against penicillin-resistant Streptococcus agalactiae B60 by agar dilution method; type: functional
experimentalReadout: MIC (µg/mL)
Give your result in µg/mL as a bare value.

// solved cases for MIC follow
- compound: "CO/N=C(\\C(=O)N[C@@H]1C(=O)N2C(C(=O)O)=C(COC(C)=O)CS[C@H]12)c1csc(N)n1 [CEFOTAXIME]"
  resultUnit: "µg/mL"
  MIC: 0.25
- compound: "CO/N=C(\\C(=O)N[C@@H]1C(=O)N2C(C(=O)[O-])=C(C[N+]3(C)CCCC3)CS[C@H]12)c1csc(N)n1 [CEFEPIME]"
  resultUnit: "µg/mL"
  MIC: 0.25
- compound: "C[C@@H](O)[C@H]1C(=O)N2C(C(=O)O)=C(S[C@@H]3CN[C@H](C(=O)N(C)C)C3)[C@H](C)[C@H]12 [MEROPENEM]"
  resultUnit: "µg/mL"
  MIC: 0.12

Note: attention shifts to another entry.
Ask: May I ask what MIC has been recorded for Cc1onc(-c2ccccc2)c1C(=O)N[C@@H]1C(=O)N2[C@@H]1SC(C)(C)[C@@H]2C(=O)O [OXACILLIN] ?
Result: 4

----------
tested on: Streptococcus agalactiae; experiment: Antimicrobial activity against penicillin-resistant Streptococcus agalactiae B513 by agar dilution method; format: functional
Readings of MIC for the listed compounds

// solved cases for MIC follow
- compound: "Cc1nnc(SCC2=C(C(=O)O)N3C(=O)[C@@H](NC(=O)Cn4cnnn4)[C@H]3SC2)s1"
  subjectOfTest: "Streptococcus agalactiae"
  MIC: "1 µg/mL"
- compound: "CO/N=C(\\C(=O)N[C@@H]1C(=O)N2C(C(=O)[O-])=C(C[N+]3(C)CCCC3)CS[C@H]12)c1csc(N)n1 [CEFEPIME]"
  subjectOfTest: "Streptococcus agalactiae"
  MIC: "1 µg/mL"

Note: attention shifts to another entry.
Ask: May I ask what MIC has been recorded for `Cc1onc(-c2ccccc2)c1C(=O)N[C@@H]1C(=O)N2[C@@H]1SC(C)(C)[C@@H]2C(=O)O` ?
Result: 8 µg/mL
